Please respond with reported inhibition at 50 µM for every item in the list.
Target: human fascin 1 (Homo sapiens, UniProt Q16658)
Construct: GST (N, cleaved yes); made in house; host or cells: Escherichia coli BL21/DE3 (pGEX4T-fascin 1 plasmid)
Assay: Fascin inhibition (actin bundling) assay, image-based
Format: biochemical
Conditions: in the presence of 50 μm of the compound relative to bundle activity when the compound was not present; read-out: Inhibition (percentage reduction of bundle activity)

Q: Param item = Cc1nocc1C(=O)Nc1nn(Cc2ccc(C(F)(F)F)cc2)c2c(C(F)(F)F)cccc12 ; retrieve measured inhibition at 50 µM.
Ans: < 10%

Q: // lookup inhibition at 50 µM for O=C(Nc1nn(Cc2ccc(C(F)(F)F)cc2)c2ccccc12)c1sccc1F
Ans: < 10%

Q: Recorded inhibition at 50 µM of Nc1nn(Cc2ccc(C(F)(F)F)cc2)c2c(C(F)(F)F)cccc12 , please.
Ans: < 10%

Q: Dear colleague, I am looking for the recorded inhibition at 50 µM of the following compound: O=C(Nc1nn(Cc2ccc(C(F)(F)F)cc2)c2ccccc12)c1ccsn1
Ans: 50%

Q: Requested field: inhibition at 50 µM. Item: Cc1ccccc1C(=O)Nc1nn(Cc2ccc(C(F)(F)F)cc2)c2ccccc12
Ans: < 10%

Q: For the compound shown here, Nc1nn(Cc2ccc(C(F)(F)F)cc2)c2ccccc12 , give the reported inhibition at 50 µM.
Ans: < 10%

Q: Form field: reported inhibition at 50 µM of O=C(Nc1nn(Cc2ccc(C(F)(F)F)cc2)c2ccccc12)c1cc(Cl)ccn1
Ans: < 10%

Q: Entry Cc1cnoc1C(=O)Nc1nn(Cc2ccc(C(F)(F)F)cc2)c2ccccc12 has what inhibition at 50 µM?
Ans: 80%

Q: Consider the compound Cc1ncsc1C(=O)Nc1nn(Cc2ccc(C(F)(F)F)cc2)c2cncc(Cl)c12 and give its measured inhibition at 50 µM.
Ans: 90%

Q: Entry under review: O=C(Nc1nn(Cc2ccc(C(F)(F)F)cc2)c2ccccc12)c1cncnc1 . Reported inhibition at 50 µM?
Ans: 90%

Q: // query inhibition at 50 µM value for entry Cc1ccc2c(NC(=O)c3conc3C)nn(Cc3ccc(C(F)(F)F)cc3)c2n1
Ans: < 10%

Q: Suppose we examine the compound Nc1nn(Cc2ccc(C(F)(F)F)cc2)c2cncc(Cl)c12 ; what inhibition at 50 µM value has been reported?
Ans: 100%

Q: // query inhibition at 50 µM value for entry Cc1ncsc1C(=O)Nc1nn(Cc2ccc(F)cc2)c2ccccc12
Ans: < 10%

Q: May I ask what inhibition at 50 µM has been recorded for Cc1nocc1C(=O)Nc1nn(Cc2ccc(C(F)(F)F)cc2)c2ccccc12 ?
Ans: 100%

Q: Recorded inhibition at 50 µM of O=C(Nc1nn(Cc2ccc(C(F)(F)F)cc2)c2ccccc12)c1ccccn1 , please.
Ans: < 10%

Q: Requested read-out: inhibition at 50 µM. Entry: Cc1cc[nH]c1C(=O)Nc1nn(Cc2ccc(C(F)(F)F)cc2)c2ccccc12
Ans: < 10%

Q: Item under review: O=C(Nc1nn(Cc2ccc(C(F)(F)F)cc2)c2cncc(Cl)c12)c1ccoc1 . Reported inhibition at 50 µM?
Ans: 10%

Q: Reported inhibition at 50 µM for Cc1ccc2c(NC(=O)c3scnc3C)nn(Cc3ccc(C(F)(F)F)cc3)c2n1 : what is it?
Ans: < 10%

---

Give measured inhibition at 50 µM for each item. Keep answers brief.
Target: human fascin 1 (Homo sapiens)
Construct: GST (N, cleaved yes); made in house; host or cells: Escherichia coli BL21/DE3 (pGEX4T-fascin 1 plasmid)
Test: Fascin inhibition (actin bundling) assay, image-based
Type: biochemical
Conditions: in the presence of 50 μm of the compound relative to bundle activity when the compound was not present; read-out: Inhibition (percentage reduction of bundle activity)

Q: I have this compound here, Cc1ccc(Cn2nc(NC(=O)c3ccoc3)c3ccccc32)cc1 , and I need its recorded inhibition at 50 µM.
Ans: < 10%

Q: // query inhibition at 50 µM value for entry O=C(Nc1nn(Cc2ccc(C(F)(F)F)cc2)c2ccccc12)c1cccc(F)c1F
Ans: < 10%

Q: # input compound: Cc1ccc(Cn2nc(NC(=O)c3cccnn3)c3ccccc32)cc1 ; wanted: its inhibition at 50 µM
Ans: < 10%

---

Assignment: determine reported inhibition at 50 µM for the given compounds.
Target: human fascin 1 (Homo sapiens, UniProt Q16658)
Construct: GST (N, cleaved yes); made in house; host or cells: Escherichia coli BL21/DE3 (pGEX4T-fascin 1 plasmid)
Assay: Fascin inhibition (actin bundling) assay, image-based
Assay type: biochemical
Conditions: in the presence of 50 μm of the compound relative to bundle activity when the compound was not present; read-out: Inhibition (percentage reduction of bundle activity)

Q: For Cc1ccc(-c2ccc(C(=O)Nc3nn(Cc4ccc(C(F)(F)F)cc4)c4ccccc34)o2)cc1 [Compound 3] , what is its reported inhibition at 50 µM?
Ans: 10%

Q: Dear colleague, I am looking for the recorded inhibition at 50 µM of the following compound: O=C(Nc1nn(Cc2ccc(C(F)(F)F)cc2)c2ccccc12)c1ccsc1Cl [Compound 38]
Ans: < 10%

Q: Which inhibition at 50 µM is listed for O=C(Nc1cn(Cc2ccc(C(F)(F)F)cc2)c2ccccc12)c1ccoc1 [Compound 105] ?
Ans: < 10%

Q: Item O=C(Nc1nn(Cc2ccc(C(F)(F)F)cc2)c2ccccc12)c1cccnn1 [Compound 49] has what recorded inhibition at 50 µM?
Ans: 100%

Q: Sample Cc1occc1C(=O)Nc1nn(Cc2ccc(C(F)(F)F)cc2)c2cc(C(F)(F)F)ccc12 [Compound 109] — what was its inhibition at 50 µM?
Ans: < 10%

Q: Requested field: inhibition at 50 µM. Item: Cc1nocc1C(=O)Nc1nn(Cc2ccc(C(F)(F)F)cc2)c2cccc(Cl)c12 [Compound 118]
Ans: < 10%

Q: Fill blank: measured inhibition at 50 µM of the compound O=C(Nc1nn(Cc2ccc(C(F)(F)F)cc2)c2ccccc12)c1cc(F)ccc1F [Compound 21] is ____.
Ans: < 10%

Q: For the compound shown here, Cc1ncsc1C(=O)Nc1nn(Cc2ccc(C(F)(F)F)cc2)c2ccc(C(F)(F)F)cc12 [Compound 126] , give the reported inhibition at 50 µM.
Ans: < 10%

---

Target: human fascin 1 (Homo sapiens)
Construct: GST (N, cleaved yes); made in house; host or cells: Escherichia coli BL21/DE3 (pGEX4T-fascin 1 plasmid)
Assay: Fascin inhibition (actin bundling) assay, image-based
Format: biochemical
Details: in the presence of 50 μm of the compound relative to bundle activity when the compound was not present; read-out: Inhibition (percentage reduction of bundle activity)
RECORDED ENDPOINT: inhibition at 50 µM (%)
# unit: % | format: bare number

Q: Value lookup for inhibition at 50 µM; key = Cc1nocc1C(=O)Nc1nn(Cc2ccc(Cl)cc2)c2ccccc12
Ans: 90

Q: // query inhibition at 50 µM value for entry O=C(Nc1nn(Cc2ccc(C(F)(F)F)cc2)c2ccccc12)c1ccc(Cl)cc1
Ans: 10

Q: So what does the record say about inhibition at 50 µM for Cc1ncsc1C(=O)Nc1nn(Cc2ccc(Cl)cc2)c2ccccc12 ?
Ans: 50

---

Give inhibition at 50 µM for every item shown.
Biological target: human fascin 1 (Homo sapiens, UniProt Q16658)
Construct: GST (N, cleaved yes); made in house; host or cells: Escherichia coli BL21/DE3 (pGEX4T-fascin 1 plasmid)
Experiment: Fascin inhibition (actin bundling) assay, image-based
Format: biochemical
Conditions: in the presence of 50 μm of the compound relative to bundle activity when the compound was not present; read-out: Inhibition (percentage reduction of bundle activity)

Q: Param item = Cc1nocc1C(=O)Nc1nn(Cc2ccc(C(F)(F)F)nc2)c2ccc(C#N)cc12 [Compound 99] ; retrieve measured inhibition at 50 µM.
Ans: < 10%

Q: Give its inhibition at 50 µM value. Item: Nc1nn(Cc2ccc(C(F)(F)F)cc2)c2cc(C(F)(F)F)ccc12 [Compound 106]
Ans: < 10%

Q: For the compound shown here, N#Cc1ccc(Cn2nc(NC(=O)c3ccoc3)c3ccccc32)cc1 [Compound 85] , give the reported inhibition at 50 µM.
Ans: < 10%

Q: Item under review: Cc1ccc(Cn2nc(NC(=O)c3conc3C)c3ccccc32)cc1 [Compound 79] . Reported inhibition at 50 µM?
Ans: < 10%

Q: What measured inhibition at 50 µM goes with O=C(Nc1nn(Cc2ccc(C(F)(F)F)cc2)c2ccccc12)c1sccc1Cl [Compound 41] ?
Ans: < 10%

Q: I would be grateful if you could share the reported inhibition at 50 µM for FC(F)(F)c1ccc(Cn2nc(-c3cccc4ccccc34)c3ccccc32)cc1 [Compound 145] .
Ans: 10%

Q: Would you kindly share the measured inhibition at 50 µM for Cc1ncsc1C(=O)Nc1nn(Cc2ccc(C(F)(F)F)cc2)c2c(C(F)(F)F)cccc12 [Compound 115] ?
Ans: < 10%

Q: Requested field: inhibition at 50 µM. Item: CC(=O)Nc1nn(Cc2ccc(C(F)(F)F)cc2)c2cncc(Cl)c12 [Compound 150]
Ans: 10%

Q: State the recorded inhibition at 50 µM for this entry: CCCC(=O)Nc1nn(Cc2ccc(C(F)(F)F)cc2)c2cncc(Cl)c12 [Compound 153]
Ans: 10%

From: patent US10227345B2
